Target entity: BRD2-BD1 (Homo sapiens (Human), UniProt P25440)
Sequence (P25440 74-194): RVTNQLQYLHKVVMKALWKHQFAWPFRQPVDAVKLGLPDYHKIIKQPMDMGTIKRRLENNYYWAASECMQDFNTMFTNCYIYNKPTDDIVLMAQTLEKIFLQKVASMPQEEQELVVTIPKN
Protocol: isothermal titration calorimetry analysis of binding
Condition parameters: ITC, BRD2-BD1
Recorded endpoint: ΔG (kcal/mol)
Give just the number in kcal/mol; leave the unit off.

Q: Give ΔG; test system BRD2-BD1 (Homo sapiens (Human), UniProt P25440); compound "CC(=O)N1c2ccc(-c3cc[nH]c3)cc2[C@H](NC(=O)OC(C)C)C[C@@H]1C"
Result: -9.28

Q: Enter measured ΔG, system BRD2-BD1 (Homo sapiens (Human), UniProt P25440), for the compound shown: "CC(=O)N1c2ccc(-c3ccoc3)cc2[C@H](NC(=O)OC(C)C)C[C@@H]1C"
Result: -8.96

Q: Write ΔG of "CC(=O)N1c2ccc(-c3cccs3)cc2[C@H](NC(=O)OC(C)C)C[C@@H]1C" ; system used: BRD2-BD1 (Homo sapiens (Human), UniProt P25440)
Result: -9.52

Q: # return ΔG of "CC(=O)N1c2ccc(-c3ccc[nH]3)cc2[C@H](NC(=O)OC(C)C)C[C@@H]1C" (system: BRD2-BD1 (Homo sapiens (Human), UniProt P25440))
Result: -9.08

Q: Would you please give the reported ΔG of "CC(=O)N1c2ccc(-c3ccsc3)cc2[C@H](NC(=O)OC(C)C)C[C@@H]1C" with BRD2-BD1 (Homo sapiens (Human), UniProt P25440)?
Result: -9.43

Q: Look up and report measured ΔG (BRD2-BD1 (Homo sapiens (Human), UniProt P25440)) for the following compound: "CC(=O)N1c2ccc(-c3ccco3)cc2[C@H](NC(=O)OC(C)C)C[C@@H]1C"
Result: -7.47

---

Could you please report measured 2.1/2.2 for the items listed next?
Target entity: BRD2-BD2 (Homo sapiens (Human), UniProt P25440)
Sequence (P25440 344-453): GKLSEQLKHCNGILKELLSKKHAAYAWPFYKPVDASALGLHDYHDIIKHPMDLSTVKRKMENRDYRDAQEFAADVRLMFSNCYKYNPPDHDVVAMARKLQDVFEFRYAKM
Protocol: competitive TR-FRET assay, BET-BD with acetylated peptide ligand
Format: binding
Condition parameters: ratio of BRD2-BD1 EC50 to BRD2-BD2 EC50 (selectivity)

Q: Answer with the recorded 2.1/2.2 of "CC(=O)Nc1cccc(-c2ccc3c(c2)[C@H](Nc2ccc(C(=O)CO)cc2)C[C@H](C)N3C(C)=O)c1" only.
Result: 145

Q: For the compound "CC(=O)Nc1cccc(-c2ccc3c(c2)[C@H](Nc2ccc(-c4nnco4)cc2)C[C@H](C)N3C(C)=O)c1" , give its reported 2.1/2.2.
Result: 21

Q: Look up and state reported 2.1/2.2 for "CC(=O)N(C)c1cccc(-c2ccc3c(c2)[C@H](Nc2ccc(Cl)cc2)C[C@H](C)N3C(C)=O)c1"
Result: 10

Q: Recall and state the measured 2.1/2.2 for "COC(=O)c1ccccc1N[C@@H]1C[C@H](C)N(C(C)=O)c2ccc(-c3cccc(NC(C)=O)c3)cc21" .
Result: 64

Q: Give a short answer stating reported 2.1/2.2 for "CC(=O)N1c2ccc(-c3cccc(NC(=O)C(C)(C)C)c3)cc2[C@H](NC(=O)OC(C)C)C[C@@H]1C" .
Result: 4.8

Q: Note 2.1/2.2 for the compound shown: "CC(=O)Nc1cccc(-c2ccc3c(c2)[C@H](Nc2ccc(N(C)C)cc2)C[C@H](C)N3C(C)=O)c1"
Result: 10

Q: Answer with reported 2.1/2.2 of "CC(=O)Nc1cccc(-c2ccc3c(c2)[C@H](Nc2ccc(-c4nnc(C)o4)cc2)C[C@H](C)N3C(C)=O)c1"
Result: 6.7

Q: Identify measured 2.1/2.2 associated with "CC(=O)Nc1ccc(N[C@@H]2C[C@H](C)N(C(C)=O)c3ccc(-c4cccc(NC(C)=O)c4)cc32)cc1"
Result: 12

Q: Quick one: give measured 2.1/2.2 for "CC(=O)N1c2ccc(-c3ccc4occc(=O)c4c3)cc2[C@H](NC(=O)OC(C)C)C[C@@H]1C"
Result: 2.0

Q: Provide one value: measured 2.1/2.2 of "CC(=O)N(c1ccc(NCC2CC2)cc1)[C@@H]1C[C@H](C)N(C(C)=O)c2ccc(-c3cccc(NC(=O)OC(C)(C)C)c3)cc21"
Result: 70

Q: Consider the compound "CC(=O)N1c2ccc(-c3ccn(C)n3)cc2[C@H](Nc2ccccc2OC(F)(F)F)C[C@@H]1C" and give its recorded 2.1/2.2.
Result: 6.3

Q: Consider the compound "CC(=O)N1c2ccc(-c3cccc(NCC4CC4)c3)cc2[C@H](NC(=O)OC(C)C)C[C@@H]1C" and give its recorded 2.1/2.2.
Result: 1.3

Q: Determine its reported 2.1/2.2: "CC(=O)Nc1cccc(-c2ccc3c(c2)[C@H](NC2CCCC2)C[C@H](C)N3C(C)=O)c1"
Result: 2.3

Q: Retrieve 2.1/2.2 measured for "COc1cc(F)ccc1N[C@@H]1C[C@H](C)N(C(C)=O)c2ccc(-c3cc[nH]n3)cc21" and print it.
Result: 6.5

Q: Answer with the recorded 2.1/2.2 of "COC(=O)c1ccc(N[C@@H]2C[C@H](C)N(C(C)=O)c3ccc(-c4cccc(OCCN5CCOCC5)c4)cc32)cc1" only.
Result: 6.5

Q: Please indicate 2.1/2.2 recorded for "CC(=O)Nc1cccc(-c2ccc3c(c2)[C@H](NC(=O)c2ccc(Cl)cc2)C[C@H](C)N3C(C)=O)c1"
Result: 1.0

Q: Recall and state the measured 2.1/2.2 for "CC(=O)Nc1cccc(-c2ccc3c(c2)[C@H](Nc2ccc(OC(F)(F)F)cc2)C[C@H](C)N3C(C)=O)c1" .
Result: 16

Q: Look up 2.1/2.2 of "CC(=O)Nc1cccc(-c2ccc3c(c2)[C@H](Nc2cccc(C(F)(F)F)c2)C[C@H](C)N3C(C)=O)c1" and report it.
Result: 8.4

Q: Using the record for "CC(=O)Nc1cccc(-c2ccc3c(c2)[C@H](Nc2ccc(C#N)c(C(F)(F)F)c2)C[C@H](C)N3C(C)=O)c1" , state its measured 2.1/2.2.
Result: 6.3

Q: Give recorded 2.1/2.2. "CCC(=O)Nc1cccc(-c2ccc3c(c2)[C@H](NC(=O)OC(C)C)C[C@H](C)N3C(C)=O)c1"
Result: 7.2

Q: Return 2.1/2.2 for the following compound: CC(=O)Nc1cccc(-c2ccc3c(c2)[C@H](NC(=O)C(C)C)C[C@H](C)N3C(C)=O)c1 [compound 71]
Result: 4.9

Q: Specify 2.1/2.2 for "CC(=O)N1c2ccc(-c3cccc(-n4cccn4)c3)cc2[C@H](Nc2ccccc2OC(F)(F)F)C[C@@H]1C" and stop.
Result: 22.9

Q: Read the entry "COc1ccc(N[C@@H]2C[C@H](C)N(C(C)=O)c3ccc(-c4cccc(NC(C)=O)c4)cc32)cc1" and write its reported 2.1/2.2.
Result: 4.8

Q: Return 2.1/2.2 (reported value) for this compound: "CC(=O)N1c2ccc(-c3cccc(NCCC(C)(C)C)c3)cc2[C@H](NC(=O)OC(C)C)C[C@@H]1C"
Result: 10

Q: Return reported 2.1/2.2. Input compound: "COC(=O)c1ccc(CN(Cc2ccc(C(=O)OC)cc2)[C@@H]2C[C@H](C)N(C(C)=O)c3ccc(-c4cccc(NC(C)=O)c4)cc32)cc1"
Result: 11

Q: Supply 2.1/2.2 value. Item: "CC(=O)N1c2ccc(-c3cccc(-n4cccn4)c3)cc2[C@H](Nc2ccc(Cl)cc2)C[C@@H]1C"
Result: 63

Q: For the compound "CC(=O)Nc1cccc(-c2ccc3c(c2)[C@H](Nc2ccc(C#N)cc2)C[C@H](C)N3C(C)=O)c1" , give its reported 2.1/2.2.
Result: 58

Q: Check the records and state 2.1/2.2 for "CNCc1ccc(N[C@@H]2C[C@H](C)N(C(C)=O)c3ccc(-c4cccc(NC(C)=O)c4)cc32)cc1"
Result: 23
